meta.source: patent US20140112915A1

Entries and their measured IC50, inhibition of IFN-γ release, KG-1 cells, Cyno IL-18 follow.
# STUDY TARGET: T1, Recombinant cynomolgus IL-18 (cynomolgus monkey, UniProt Q14116 37-193 (human entry))
# T1 chain: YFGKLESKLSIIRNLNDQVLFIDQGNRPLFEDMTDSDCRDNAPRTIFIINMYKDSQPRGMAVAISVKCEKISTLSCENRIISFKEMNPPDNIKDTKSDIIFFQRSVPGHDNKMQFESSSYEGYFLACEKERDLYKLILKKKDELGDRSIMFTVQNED
# TEST NAME: cell-based or functional assay

Look over these answered cases.
MOR09465 (antibody, human IgG1, lambda, L234A L235A, V domains shown, also called MOR9465) VH: EVQLVQSGAEVKKPGSSVKVSCKASGGTFNSYAISWVRQAPGQGLEWMGNIIPHYGFAYYAQKFQGRVTITADESTSTAYMELSSLRSEDTAVYYCARAAYHPLVFDNWGQGTLVTVSS VL: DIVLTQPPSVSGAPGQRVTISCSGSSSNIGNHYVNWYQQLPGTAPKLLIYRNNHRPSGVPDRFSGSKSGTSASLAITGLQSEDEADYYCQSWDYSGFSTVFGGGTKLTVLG    1.8 nM
MOR08775 (antibody, human IgG1, lambda, V domains shown, also called MOR8775) VH: QVQLVQSGAEVKKPGSSVKVSCKASGGTFNSYAISWVRQAPGQGLEWMGGIIPIYGTANYAQKFQGRVTITADESTSTAYMELSSLRSEDTAVYYCARAAYHPLVFDNWGQGTLVTVSS VL: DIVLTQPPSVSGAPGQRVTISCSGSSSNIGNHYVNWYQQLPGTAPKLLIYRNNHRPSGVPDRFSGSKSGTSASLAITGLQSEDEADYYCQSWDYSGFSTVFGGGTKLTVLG    22 nM

Read the next record carefully.
Form: binder = MOR10222_E1Q_N30S_M54I (antibody, human IgG1, lambda, L234A L235A, V domains shown) VH: QVQLVQSGAEVKKPGSSVKVSCKASGGTFSSYAISWVRQAPGQGLEWMGNIIPITGQTYYAQKFQGRVTITADESTSTAYMELSSLRSEDTAVYYCARAAYHPLVFDNWGQGTLVTVSS VL: QSVLTQPPSASGTPGQRVTISCSGSSSNIGNHYVNWYQQLPGTAPKLLIYRNNHRPSGVPDRFSGSKSGTSASLAISGLQSEDEADYYCQSWDYSGFSTVFGGGTKLTVLG ; IC50, inhibition of IFN-γ release, KG-1 cells, Cyno IL-18 = 8.12 nM
